Protocol details: Metabolic stability in human liver microsome assessed as parent compound remaining in presence of NADPH measured at 60 mins by LC-MS/MS analysis
Assay type: ADME
Experimental context: liver microsomes, read-out: Stability
Threshold 1%. remaining at 1 h below it: 1. remaining at 1 h at it or above: 0.

Example entries begin here.
INSERT INTO results (smiles_input, label_class) VALUES
  ('CC[C@H]1OC(=O)[C@@](C)(F)C(=O)[C@H](C)[C@@H](O[C@@H]2O[C@H](C)C[C@H](N(C)C)[C@H]2O)[C@](C)(OC)C[C@@H](C)C(=O)[C@H](C)[C@H]2N(CCCOC(=O)Nc3cccc(C)c3)C(=O)O[C@]12C', 0),
  ('CC[C@H]1OC(=O)[C@@](C)(F)C(=O)[C@H](C)[C@@H](O[C@@H]2O[C@H](C)C[C@H](N(C)C)[C@H]2O)[C@](C)(OC)C[C@@H](C)C(=O)[C@H](C)[C@H]2N(CCCOC(=O)Nc3ccc(F)cc3)C(=O)O[C@]12C', 1),
  ('CC[C@H]1OC(=O)[C@@](C)(F)C(=O)[C@H](C)[C@@H](O[C@@H]2O[C@H](C)C[C@H](N(C)C)[C@H]2O)[C@](C)(OC)C[C@@H](C)C(=O)[C@H](C)[C@H]2N(CCCOC(=O)Nc3ccc4c(c3)CCO4)C(=O)O[C@]12C', 1),
  ('CC[C@H]1OC(=O)[C@@](C)(F)C(=O)[C@H](C)[C@@H](O[C@@H]2O[C@H](C)C[C@H](N(C)C)[C@H]2O)[C@](C)(OC)C[C@@H](C)C(=O)[C@H](C)[C@H]2N(CCCOC(=O)Nc3ccccc3C)C(=O)O[C@]12C', 0);

Lookup: Does the reported remaining at 1 h of the following compound sit strictly below 1%? CC[C@H]1OC(=O)[C@@](C)(F)C(=O)[C@H](C)[C@@H](O[C@@H]2O[C@H](C)C[C@H](N(C)C)[C@H]2O)[C@](C)(OC)C[C@@H](C)C(=O)[C@H](C)[C@H]2N(CCCOC(=O)Nc3c(C)noc3C)C(=O)O[C@]12C
Found: 0
